# Tested on: 5-lipoxygenase
# assay_protocol: Inhibition of the synthesis of LTB4 by the peritoneal PMN of rats in vitro (5-lipoxygenase-inhibiting activity)
# Type: cell-based, rat
# assay_setup: 10^-6 M; rat peritoneal PMN, A23187 10^-6 M
Counter-ions that a name gives are not always drawn.
measured_quantity: LTB4 % Inhibition (%)
Give just the number in %; leave the unit off.

Worked examples follow.
molecule	measured_quantity	endpoint_value
O=C1NCC2(CCN(CC(O)c3ccc(OCc4ccc5ccccc5n4)cc3)CC2)O1 (racemic)	LTB4 % Inhibition	95
O=C1NCC2(CCN(CC(c3ccccc3)c3ccc(OCc4ccc5ccccc5n4)cc3)CC2)O1 (racemic)	LTB4 % Inhibition	100
O=C1NCC2(CCN(CC(Cc3ccc(Cl)cc3)c3ccc(OCc4ccc5ccccc5n4)cc3)CC2)O1 (racemic) [Example 34, hydrochloride]	LTB4 % Inhibition	100

Exercise: Please give the documented LTB4 % Inhibition of O=C1NCC2(CCN(C(=O)c3ccc(OCc4ccc5ccccc5n4)cc3)CC2)O1
Solution: 14

Exercise: Please give the documented LTB4 % Inhibition of O=C1NCC2(CCN(C(=O)Cc3ccc(OCc4ccc5ccccc5n4)cc3)CC2)O1
Solution: 18

Exercise: Please give the documented LTB4 % Inhibition of O=C1NCC2(CCN(C(c3ccc(Cl)cc3)c3ccc(OCc4ccc5ccccc5n4)cc3)CC2)O1 (racemic) [Example 22, dihydrochloride]
Solution: 100

Exercise: Please give the documented LTB4 % Inhibition of O=C1NCC2(CCN(CC(Cc3ccccc3)c3ccc(OCc4ccccc4)cc3)CC2)O1 (racemic) [Example 31, hydrochloride]
Solution: 16

Exercise: Please give the documented LTB4 % Inhibition of O=C1NCC2(CCN(CCc3ccc(OCc4ccc5ccccc5n4)cc3)CC2)O1
Solution: 90
